// data source = the supplement of paper PMC10567573

B1: CCDC6 (parent)
chain: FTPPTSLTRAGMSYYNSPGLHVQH

Variants of: B1
PROTOCOL_DETAILS: protein stability index of a GFP-peptide fusion (GPS, HEK-293T) (PSI 1-6); higher = more stable;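 note: lentivirally expressed fusions sorted by FACS into six bins by GFP to DsRed ratio, PSI derived from sequencing read proportions per bin multiplied by bin number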
EXPERIMENTAL_CONDITIONS: c terminus: a fixed tail appended
Parameter threshold = 2. Response is YES when protein stability index meets or exceeds it, else NO.

{"columns": ["SEQ_TEXT", "ASSIGNED_CATEGORY"],
 "data": [
  ["FTPPTSTTRAGMSYYNSPGLHVQH", "NO"],
  ["FTPPTSLTRAGMSYYNSPGLHVQP", "YES"],
  ["FTPPTSLIRAGMSYYNSPGLHVQH", "YES"]
]}

Problem: Does protein stability index meet or surpass 2 for FTPPTSLTRAGMSYYNSPGLHCQH ?
Solution: NO

Problem: Does protein stability index meet or surpass 2 for FTPPTSLTRAGMSYYNSPQLHVQH ?
Solution: YES

Problem: Does protein stability index meet or surpass 2 for FTPPTSLTRAGMSYYNSPGLWVQH ?
Solution: YES

Problem: Does protein stability index meet or surpass 2 for FTPPTVLTRAGMSYYNSPGLHVQH ?
Solution: YES

Problem: Does protein stability index meet or surpass 2 for FTPPTSLTRWGMSYYNSPGLHVQH ?
Solution: YES

Problem: Does protein stability index meet or surpass 2 for FTPPTSATRAGMSYYNSPGLHVQH ?
Solution: YES

Problem: Does protein stability index meet or surpass 2 for FTPPTSLTRAGMSYANSPGLHVQH ?
Solution: YES

Problem: Does protein stability index meet or surpass 2 for FTPPTMLTRAGMSYYNSPGLHVQH ?
Solution: NO

Problem: Does protein stability index meet or surpass 2 for FFPPTSLTRAGMSYYNSPGLHVQH ?
Solution: NO

Problem: Does protein stability index meet or surpass 2 for FTPPTSLTNAGMSYYNSPGLHVQH ?
Solution: NO

Problem: Does protein stability index meet or surpass 2 for FTPPTSLTRAGMSYDNSPGLHVQH ?
Solution: YES

Problem: Does protein stability index meet or surpass 2 for FTPPTSLTRAGMSYYNSPGFHVQH ?
Solution: NO

Problem: Does protein stability index meet or surpass 2 for FTPPTSLHRAGMSYYNSPGLHVQH ?
Solution: NO

Problem: Does protein stability index meet or surpass 2 for FTPPTSLNRAGMSYYNSPGLHVQH ?
Solution: YES

Problem: Does protein stability index meet or surpass 2 for FTPPTSLTRAGMSYYNSTGLHVQH ?
Solution: YES

Problem: Does protein stability index meet or surpass 2 for FTPPTSLKRAGMSYYNSPGLHVQH ?
Solution: NO
